# ASSAY_SYSTEM: recombinant cynomolgus IL-1B (cynomolgus, UniProt P79182 117-268, limits assumed)
# Sequence (P79182 117-268 limits assumed): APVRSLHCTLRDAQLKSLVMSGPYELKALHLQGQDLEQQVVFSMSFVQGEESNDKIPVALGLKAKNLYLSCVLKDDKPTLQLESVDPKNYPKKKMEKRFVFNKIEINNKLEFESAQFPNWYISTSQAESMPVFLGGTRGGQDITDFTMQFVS
# TEST_NAME: cell-based or functional assay
Examples of binders with documented IC50, rec. cyno IL-1 B, HEK blue follow.
Report only the number, with the unit pM understood.

[[record]]
binder = "Antibody B1 (antibody, V domains shown) VH: EVQLVQSGAEVKKPGASVKVSCKASGFSFTGYYMHWVRQAPGQGLEWVGLIIPHNDYTVNNQKFKGRVTMTRDTSTSTAYMELSSLRSEDTAVYYCARSDYYGAMDYWGQGTLVTVSS VL: EIVMTQSPATLSVSPGERATLSCRASQNIGTSIHWYQQKPGQAPRLLIKYASNSIYGIPARFSGSGSGTEFTLTISSLQSEDIAVYYCQQGASWPPFTFGQGTKLEIK"
value_reported = 13

[[record]]
binder = "Antibody A3 (antibody, V domains shown) VH: QVQLVQSGAEVKKPGASVKVSCKATGYTFTDYWIAWVRQAPGQGLEWMGSIFPGGDYTNYNEKFKGRVTMTRDTSTSTSYMELSSLRSEDTAIYYCARPYYSNYGHFDYWGQGTLVTVSS VL: EIILTQFPATLSLSPGERATISCRASESVDNSGIGFMNWYQQKPGQAPRLLIYAASNQGSGIPARFSGSGSGTDFTLTISRLEPEDFAVYYCQQNKELPWTFGQGTKLEIK"
value_reported = 23


Let us move to another entry and its IC50, rec. cyno IL-1 B, HEK blue.
Please look up its IC50, rec. cyno IL-1 B, HEK blue: Antibody A1 (antibody, V domains shown) VH: QVQLVQSGAEVKKPGASVKVSCKATGYTFTNYWIAWVKQAPGQGLEWMGSIFPGGDYTNYNEKFKGKVTMTRDTSTSTSYMELSSLRSEDTAVYYCARPYYSNYGHFDYWGQGTLVTVSS VL: EIVLTQSPATLSLSPGERATLSCRASESVDNSGIGFMNWYQQKPGQAPKLLIYAASNQGSGIPARFSGSGSGTDFTLTISRLEPEDFAMYYCQQNKELPWTFGGGTKLEIK 30

meta.source: patent WO2016008851A1
